Attribution: patent US11603373B2

Biological target: TDO2 (SW48 cells, high TDO expressing cells) (Homo sapiens)
Construct: SW48 cells (high TDO expressing cells); endogenous in cells
Sequence (P48775 whole entry): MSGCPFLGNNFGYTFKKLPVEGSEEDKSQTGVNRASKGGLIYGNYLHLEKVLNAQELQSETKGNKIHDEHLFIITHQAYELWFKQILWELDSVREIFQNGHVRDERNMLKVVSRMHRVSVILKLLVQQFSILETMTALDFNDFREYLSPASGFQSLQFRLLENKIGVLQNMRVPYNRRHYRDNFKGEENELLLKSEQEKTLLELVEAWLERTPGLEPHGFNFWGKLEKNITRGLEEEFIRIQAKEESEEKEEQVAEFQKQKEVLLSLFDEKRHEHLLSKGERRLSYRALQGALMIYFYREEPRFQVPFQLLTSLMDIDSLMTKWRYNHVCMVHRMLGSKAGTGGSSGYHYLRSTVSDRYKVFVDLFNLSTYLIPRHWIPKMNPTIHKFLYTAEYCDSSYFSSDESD
Test: NFK GreenScreen cell assay, inhibition of TDO in SW48 cells
Settings: read-out: TDO2 Cell Fluor EC50
One threshold, 400 nM, splits the recorded EC50 values: lower ones are True, equal or higher ones are False.

Quick check: does N#CC1(C(=O)N2CCC3(CC2)C[C@@H]([C@H]2c4ccccc4-c4cncn42)[C@H]3O)CC1 [compound 61] have EC50 under 400 nM?
False

Input CC(C)(C)OC(=O)N1CCC2(CC[C@H]([C@@H]3c4ccccc4-c4cncn43)[C@@H]2O)CC1 (single isomer, unassigned) [Example 2d] ; condition: EC50 strictly below 400 nM. Does it hold?
False

Hello, I'm reviewing records and need to know if EC50 of CC(C)(C)OC(=O)N[C@H]1CC[C@]2(CC1)C[C@@H]([C@@H]1c3ccccc3-c3cncn31)[C@@H]2O (single isomer, unassigned) [Example 24h] is below 400 nM. Could you check?
False

Does the reported EC50 of the following compound sit strictly below 400 nM? Cc1cc(CC(=O)N2CCC3(CC2)C[C@@H]([C@H]2c4ccccc4-c4cncn42)[C@H]3O)no1 [compound 54]
True

Please check: EC50 for CC(C)(C)OC(=O)N[C@H]1CC[C@@]2(CC1)C[C@@H]([C@H]1c3ccccc3-c3cncn31)[C@@H]2O (single isomer, unassigned) [Example 24j] , strictly under 400 nM or not?
True

Does the reported EC50 of CC(C)(C)OC(=O)N1CC2CCC(C1)C21C[C@@H]([C@@H]2c3ccccc3-c3cncn32)[C@H]1O (stereo partly shown) [Example 22d] stay below 400 nM?
False

Dear reviewer, please state whether Cn1cc(CCC(=O)N2CCC3(CC2)C[C@@H]([C@H]2c4ccccc4-c4cncn42)[C@H]3O)cn1 [compound 55] has EC50 strictly beneath 400 nM.
False

###

Target: IDO1 (A172+IFNg cells, high IDO expressing cells) (Homo sapiens)
Construct: A172+IFNg cells (high IDO expressing cells); endogenous in cells; host or cells: A172 cells induced with 100 ng/ml IFNγ
Sequence (P14902 whole entry): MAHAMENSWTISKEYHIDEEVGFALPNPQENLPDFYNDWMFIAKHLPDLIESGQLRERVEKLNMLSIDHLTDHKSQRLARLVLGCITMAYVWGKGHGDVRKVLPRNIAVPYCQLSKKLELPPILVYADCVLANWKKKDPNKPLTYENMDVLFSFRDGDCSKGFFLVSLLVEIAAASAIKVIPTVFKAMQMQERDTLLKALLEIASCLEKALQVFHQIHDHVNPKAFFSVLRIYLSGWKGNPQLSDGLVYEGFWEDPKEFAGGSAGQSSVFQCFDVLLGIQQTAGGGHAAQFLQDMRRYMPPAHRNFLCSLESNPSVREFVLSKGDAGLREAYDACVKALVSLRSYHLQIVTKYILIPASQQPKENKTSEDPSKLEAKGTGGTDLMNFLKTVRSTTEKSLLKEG
Assay: NFK GreenScreen cell assay, inhibition of IDO in A172+IFNg cells
Assay type: cell-based
Conditions: read-out: IDO cell Fluor EC50
Rule: measured EC50 below 2 µM gets Fulfilled; anything equal to or greater than 2 µM gets Not fulfilled.

[[record]]
compound = "CC(C)(C)OC(=O)N1[C@@H]2CC[C@H]1C[C@]1(C[C@H]([C@H]3c4ccccc4-c4cncn43)[C@@H]1O)C2 (single isomer, unassigned) [Example 12c]"
qualitative_label = "Fulfilled"

[[record]]
compound = "O=C(OCC(F)F)N1CCC2(CC1)C[C@@H]([C@H]1c3ccccc3-c3cncn31)[C@H]2O"
qualitative_label = "Fulfilled"

[[record]]
compound = "O=C(OCC(F)F)N1CCC2(CCC(C3c4ccccc4-c4cncn43)C2O)CC1 (single isomer, unassigned)"
qualitative_label = "Fulfilled"


Identify whether the compound CS(=O)(=O)N1CCC2(CC1)C[C@@H]([C@@H]1c3ccccc3-c3cncn31)[C@H]2O (single isomer, unassigned) records EC50 below 2 µM.
Not fulfilled

Report whether reported EC50 is lower than 2 µM (strictly) for CC(C)(C)OC(=O)N1CC2CCC(C1)C21C[C@H]([C@H]2c3ccccc3-c3cncn32)[C@@H]1O (stereo partly drawn) [Example 22c]
Not fulfilled

Check if EC50 falls below 2 µM for CC(C)(C)OC(=O)N[C@H]1CC[C@@]2(CC1)C[C@H]([C@@H]1c3ccccc3-c3cncn31)[C@@H]2O (single isomer, unassigned) [Example 24p] .
Fulfilled
